# test-system: UniProtKB Q6RI86
# Sequence (Q6RI86 whole entry): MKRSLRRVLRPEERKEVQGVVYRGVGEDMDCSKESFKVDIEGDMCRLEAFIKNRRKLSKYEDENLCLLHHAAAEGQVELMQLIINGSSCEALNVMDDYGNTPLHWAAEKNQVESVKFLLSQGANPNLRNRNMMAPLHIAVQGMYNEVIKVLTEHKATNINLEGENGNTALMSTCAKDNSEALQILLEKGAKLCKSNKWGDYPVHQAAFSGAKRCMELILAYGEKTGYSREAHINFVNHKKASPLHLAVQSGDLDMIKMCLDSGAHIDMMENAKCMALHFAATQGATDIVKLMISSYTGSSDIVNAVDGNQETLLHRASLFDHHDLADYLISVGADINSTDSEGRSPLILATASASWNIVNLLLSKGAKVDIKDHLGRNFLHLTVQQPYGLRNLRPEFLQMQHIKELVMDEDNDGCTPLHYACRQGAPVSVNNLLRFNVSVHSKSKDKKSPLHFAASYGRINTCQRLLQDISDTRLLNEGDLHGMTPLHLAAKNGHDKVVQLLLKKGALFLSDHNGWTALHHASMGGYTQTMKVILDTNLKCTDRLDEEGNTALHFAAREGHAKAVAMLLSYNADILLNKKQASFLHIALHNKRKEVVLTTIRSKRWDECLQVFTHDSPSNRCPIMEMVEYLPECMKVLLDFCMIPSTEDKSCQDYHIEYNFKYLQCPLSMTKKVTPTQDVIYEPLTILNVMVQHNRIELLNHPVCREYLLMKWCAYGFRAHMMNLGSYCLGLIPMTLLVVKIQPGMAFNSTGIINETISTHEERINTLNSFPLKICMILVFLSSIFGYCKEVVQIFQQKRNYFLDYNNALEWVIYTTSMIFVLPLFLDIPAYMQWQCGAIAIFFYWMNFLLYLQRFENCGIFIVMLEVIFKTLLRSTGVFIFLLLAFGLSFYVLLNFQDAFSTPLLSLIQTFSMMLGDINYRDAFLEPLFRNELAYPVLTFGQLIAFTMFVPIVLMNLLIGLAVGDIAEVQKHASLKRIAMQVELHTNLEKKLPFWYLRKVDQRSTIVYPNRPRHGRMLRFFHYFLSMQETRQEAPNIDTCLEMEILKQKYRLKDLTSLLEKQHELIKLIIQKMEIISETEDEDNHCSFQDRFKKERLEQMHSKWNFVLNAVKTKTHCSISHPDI
# test-protocol: Antagonist activity at rat recombinant TRPA1 overexpressed in HEK293 cells assessed as inhibition of allyl isothiocyanate-induced intracellular calcium influx preincubated for 5 mins followed by allyl isothiocyanate challenge by Fluo-4-AM dye-based spectrofluorimetric analysis
measure: IC50 (nM)

A: O=C1O/C(=C\c2ccc(Cl)cc2)c2ccccc21
B: Cc1cc(C)c2c(c1)/C(=C/c1ccccc1)OC2=O
C: COc1ccc(/C=C2\OC(=O)c3ccccc32)cc1
## Task Please sort the compounds listed above from highest to lowest IC50. The labels, placed in the requested order, form the answer.
## Result C, A, B

* * *

# test-system: Transient receptor potential cation channel subfamily M member 8 (Rattus norvegicus)
# Sequence (Q8R455 whole entry): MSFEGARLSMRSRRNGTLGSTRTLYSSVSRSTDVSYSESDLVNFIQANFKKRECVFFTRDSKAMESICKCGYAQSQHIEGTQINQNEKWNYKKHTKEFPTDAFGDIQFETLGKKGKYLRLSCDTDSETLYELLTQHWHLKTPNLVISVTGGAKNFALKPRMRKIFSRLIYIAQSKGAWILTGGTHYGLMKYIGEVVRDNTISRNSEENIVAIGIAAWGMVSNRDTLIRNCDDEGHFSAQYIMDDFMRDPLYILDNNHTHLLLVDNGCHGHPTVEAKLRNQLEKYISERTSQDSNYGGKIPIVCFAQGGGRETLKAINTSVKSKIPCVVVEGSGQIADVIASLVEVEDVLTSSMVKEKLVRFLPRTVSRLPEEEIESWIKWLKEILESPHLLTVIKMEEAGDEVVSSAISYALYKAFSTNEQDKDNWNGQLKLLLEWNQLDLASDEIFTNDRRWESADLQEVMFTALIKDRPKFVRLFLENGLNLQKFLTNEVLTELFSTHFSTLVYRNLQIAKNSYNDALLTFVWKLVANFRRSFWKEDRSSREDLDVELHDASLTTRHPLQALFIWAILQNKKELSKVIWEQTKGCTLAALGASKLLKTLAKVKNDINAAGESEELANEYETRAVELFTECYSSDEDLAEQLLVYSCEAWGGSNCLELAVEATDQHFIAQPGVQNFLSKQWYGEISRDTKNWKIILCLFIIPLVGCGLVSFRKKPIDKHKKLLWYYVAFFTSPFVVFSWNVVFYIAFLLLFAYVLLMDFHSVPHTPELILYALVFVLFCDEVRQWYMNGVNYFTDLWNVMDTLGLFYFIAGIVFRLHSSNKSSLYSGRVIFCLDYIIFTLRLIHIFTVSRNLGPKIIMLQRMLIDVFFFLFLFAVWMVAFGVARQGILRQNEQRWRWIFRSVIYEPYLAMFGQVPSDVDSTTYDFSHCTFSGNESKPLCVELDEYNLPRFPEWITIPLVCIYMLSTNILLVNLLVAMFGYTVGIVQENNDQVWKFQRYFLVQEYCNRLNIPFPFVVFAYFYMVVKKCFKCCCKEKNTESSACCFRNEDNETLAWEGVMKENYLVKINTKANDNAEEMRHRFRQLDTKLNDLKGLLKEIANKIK
# test-protocol: Antagonist activity at rat recombinant TRPM8 overexpressed in HEK293 cells assessed as inhibition of icilin-induced intracellular calcium influx preincubated for 5 mins followed by icilin challenge by Fluo-4-AM dye-based spectrofluorimetric analysis
# Assay type: cell-based
pIC50: −log10 of the molar value.
measure: pIC50

Take a look at these entries with their results.
INSERT INTO assay_data (compound, reported_result) VALUES
  ('O=C1O/C(=C\c2ccc(Cl)cc2)c2ccccc21', 4.83),
  ('Cc1ccc(/C=C2\OC(=O)c3ccccc32)cc1', 5.14),
  ('C=C1OC(=O)c2c(C)cc(C)cc21', 4.05),
  ('COc1ccc(/C=C2\OC(=O)c3ccccc32)cc1', 5.47),
  ('O=C1O/C(=C\c2ccccc2)c2ccccc21', 5.08),
  ('C/C=C1\OC(=O)c2ccc(OC)cc21', 3.79),
  ('CCC/C=C1\OC(=O)c2ccccc21 [Z-butylidenephthalide]', 3.85);

a: Cc1cc(C)c2c(c1)/C(=C/c1ccccc1)OC2=O
b: CC/C=C1\OC(=O)c2c(C)cc(C)cc21
## Task Pick one: a or b . Which has the bigger pIC50 number? Write the label of whichever entry you select.
## Result a
(a: 6.00, b: 5.11)
